- assay: NCI Yeast Anticancer Drug Screen. Data for the mec2-1 strain (AID 157)
- assay_context: S. cerevisiae mec2-1 strain, at 50.0 µM, active compounds read high
The panel holds about 79,000 compounds, 15% with a hit somewhere; the sample as a whole holds those more often.
Please mark fulfilled if the recorded growth inhibition is equal to or greater than -20%, and not fulfilled if it falls below.

[[record]]
molecule = "CCCc1ccc(N=Cc2cc(OC)c(OC)c(OC)c2)cc1"
qualitative_label = "fulfilled"

[[record]]
molecule = "OCC(O)C(OC1OC(CO)C(O)C(O)C1O)c1nn(-c2ccc(F)cc2)c2nc3cc(Cl)c(Cl)cc3cc12 (stereo unspecified)"
qualitative_label = "fulfilled"

[[record]]
molecule = "COc1ccccc1C(O)c1ccccc1 (stereo unspecified)"
qualitative_label = "not fulfilled"

[[record]]
molecule = "Cc1cc(=O)[nH]c2ccc(-c3ccc4[nH]c(=O)cc(C)c4c3)cc12"
qualitative_label = "fulfilled"

[[record]]
molecule = "CCCCCCCCCCCC(=O)Nc1ccc(N(C)C(C)=O)cc1"
qualitative_label = "fulfilled"

[[record]]
molecule = "Cc1cc2c(cc1C)NC(=O)CC(=O)N2"
qualitative_label = "not fulfilled"

